Binding to ECD1 (Labelled MST) Amplitude values by entry
Target: ECD1 of ABCA1 (Homo sapiens, UniProt O95477)
Construct: The proteins used in these experiments were Extra-Cellular Domain 1 (ECD1) of ABCA1 and Extra-Cellular Domain 2 (ECD2); purchased Biomatick
Sequence (O95477 43-639 limits assumed): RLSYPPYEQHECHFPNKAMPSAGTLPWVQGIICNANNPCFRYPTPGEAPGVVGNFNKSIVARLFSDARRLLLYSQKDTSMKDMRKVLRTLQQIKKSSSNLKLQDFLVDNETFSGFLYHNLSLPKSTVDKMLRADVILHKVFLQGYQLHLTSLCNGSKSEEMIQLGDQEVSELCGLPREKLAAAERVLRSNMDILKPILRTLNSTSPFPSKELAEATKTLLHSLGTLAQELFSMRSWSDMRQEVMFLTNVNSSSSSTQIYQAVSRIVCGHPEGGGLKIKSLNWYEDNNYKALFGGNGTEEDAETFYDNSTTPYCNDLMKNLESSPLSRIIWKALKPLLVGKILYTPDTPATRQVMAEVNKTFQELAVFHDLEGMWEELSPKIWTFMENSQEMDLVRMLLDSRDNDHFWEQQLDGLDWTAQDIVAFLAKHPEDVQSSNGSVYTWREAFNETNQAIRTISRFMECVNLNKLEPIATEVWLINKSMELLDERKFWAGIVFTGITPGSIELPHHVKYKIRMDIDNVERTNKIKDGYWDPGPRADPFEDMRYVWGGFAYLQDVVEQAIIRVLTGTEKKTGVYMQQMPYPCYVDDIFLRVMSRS
Experiment: Microscale thermophoresis (MST) binding, labelled protein
Description: Microscale thermophoresis (MST) measurements. MST measurements of the binding of the HTS hits to the extracellular domain (ECD) of ABCA1 were performed by two complimentary methods utilizing either fluorescently labeled proteins or the endogenous fluorescence of unlabeled proteins. […] The buffers of protein samples were exchanged on a desalting PD-10 column to MST labelling buffer (Nanotemper Technologies, NT.115). […] Protein-compound interactions were analyzed by microscale thermophoresis. […]
Provide the reading as a plain figure in a.u..

Some entries whose results are on file:
> print(dat)
                                   molecule  units.label  measured
1  O=[N+]([O-])c1ccc(N2CCCCC2)c2nonc12 [Hit #7]         a.u.     22.05
2  C[C@]12CC[C@@H](O)CC1CCC1C2CC[C@](C)(C(=O)O)C1/C=C1/Nc2ccccc2C1=O (some centres unmarked) [Hit #12]         a.u.      9.05
3  CC(C)(C)C(=O)COC(=O)c1ccccc1SCc1cc(-c2ccco2)on1 [Hit #4]         a.u.     13.63
4  CSC(SC)=C1CC/C(=C/c2ccc(N(C)C)cc2)C1=O [Hit #14]         a.u.         0

Lab note: next molecule to report on.
Exercise: Dear colleague, please send me the reported Binding to ECD1 (Labelled MST) Amplitude for Cc1nn(CC(=O)c2ccc(Br)s2)c(C)c1[N+](=O)[O-] [Hit #3] when you can.
Solution: 10.85

###

biological target: ECD1 of ABCA1 (Homo sapiens); construct: The proteins used in these experiments were Extra-Cellular Domain 1 (ECD1) of ABCA1 and Extra-Cellular Domain 2 (ECD2); purchased Biomatick; assay: Microscale thermophoresis (MST) binding, label free protein; details: unlabelled ECD1
Hi, to clarify the labels: Y covers Binding to ECD1 (Label free MST) Amplitude from 20 a.u. upward, N covers anything below 20 a.u..

As a guide, the following entries are already answered.
> print(dat)
                                   molecule  group
1    CSC(SC)=C1CC/C(=C/c2ccc(N(C)C)cc2)C1=O      N
2                 Clc1cc(N2CCOCC2)c2nonc2c1      Y
3  Cc1nn(CC(=O)c2ccc(Br)s2)c(C)c1[N+](=O)[O-]      Y

Exercise: Hello, I need to know if CC(C)(C)C(=O)COC(=O)c1ccccc1SCc1cc(-c2ccco2)on1 has measured Binding to ECD1 (Label free MST) Amplitude not below 20 a.u.. Thanks!
Solution: N

Exercise: Hello, I need to know if C[C@]12CC[C@@H](O)CC1CCC1C2CC[C@](C)(C(=O)O)C1/C=C1/Nc2ccccc2C1=O (some centres unmarked) has measured Binding to ECD1 (Label free MST) Amplitude not below 20 a.u.. Thanks!
Solution: Y

###

Kd values by entry
molecular target: ECD1 of ABCA1 (Homo sapiens); construct: The proteins used in these experiments were Extra-Cellular Domain 1 (ECD1) of ABCA1 and Extra-Cellular Domain 2 (ECD2); purchased Biomatick; test: Microscale thermophoresis (MST) binding, labelled protein
Provide the reading as a plain figure in µM.

Some entries whose results are on file:
> print(dat)
                                   compound  measured
1  CC(C)(C)C(=O)COC(=O)c1ccccc1SCc1cc(-c2ccco2)on1 [Hit #4]        27
2  C[C@]12CC[C@@H](O)CC1CCC1C2CC[C@](C)(C(=O)O)C1/C=C1/Nc2ccccc2C1=O (stereo partly drawn) [Hit #12]        11

Lab note: next compound to report on.
Exercise: Dear colleague, please send me the reported Kd for Cc1nn(CC(=O)c2ccc(Br)s2)c(C)c1[N+](=O)[O-] [Hit #3] when you can.
Solution: 278

###

Molecular target: ECD1 of ABCA1 (Homo sapiens, UniProt O95477)
Construct: The proteins used in these experiments were Extra-Cellular Domain 1 (ECD1) of ABCA1 and Extra-Cellular Domain 2 (ECD2); purchased Biomatick
Sequence (O95477 43-639 limits assumed): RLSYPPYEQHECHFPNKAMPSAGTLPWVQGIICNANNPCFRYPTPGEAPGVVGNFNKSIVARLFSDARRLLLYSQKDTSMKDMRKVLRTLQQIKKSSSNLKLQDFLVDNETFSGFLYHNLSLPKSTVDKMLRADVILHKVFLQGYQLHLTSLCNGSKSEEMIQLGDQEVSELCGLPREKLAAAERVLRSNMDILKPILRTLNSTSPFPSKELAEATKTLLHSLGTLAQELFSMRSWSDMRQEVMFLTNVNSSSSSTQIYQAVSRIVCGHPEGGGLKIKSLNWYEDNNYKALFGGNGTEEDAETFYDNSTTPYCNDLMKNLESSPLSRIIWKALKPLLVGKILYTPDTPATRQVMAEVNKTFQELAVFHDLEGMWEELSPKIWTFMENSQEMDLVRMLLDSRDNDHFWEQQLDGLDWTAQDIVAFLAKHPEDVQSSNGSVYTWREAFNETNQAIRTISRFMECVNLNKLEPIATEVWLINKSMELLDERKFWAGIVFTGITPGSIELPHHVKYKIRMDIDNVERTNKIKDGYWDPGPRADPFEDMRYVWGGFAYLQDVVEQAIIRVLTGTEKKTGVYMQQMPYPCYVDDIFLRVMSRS
Assay: Microscale thermophoresis (MST) binding, label free protein
Conditions: unlabelled ECD1
Protocol: Microscale thermophoresis (MST) measurements. MST measurements of the binding of the HTS hits to the extracellular domain (ECD) of ABCA1 were performed by two complimentary methods utilizing either fluorescently labeled proteins or the endogenous fluorescence of unlabeled proteins. This was pursued as follows: The experiments were performed with the purified extracellual domains 1 (ECD1) and 2 (ECD2) of ABCA1 [18]. […]
Assay Readout: Kd (µM)
Provide the reading as a plain figure in µM.

Some entries whose results are on file:
> print(dat)
                                   compound                         system.under.test  assay.readout  units.label  measured
1  Cc1nn(CC(=O)c2ccc(Br)s2)c(C)c1[N+](=O)[O-] [Hit #3]  ECD1 of ABCA1 (Homo sapiens, UniProt O95477)             Kd           µM       178
2  C[C@]12CC[C@@H](O)CC1CCC1C2CC[C@](C)(C(=O)O)C1/C=C1/Nc2ccccc2C1=O (stereo partly shown) [Hit #12]  ECD1 of ABCA1 (Homo sapiens, UniProt O95477)             Kd           µM       314

Lab note: next compound to report on.
Exercise: Dear colleague, please send me the reported Kd for Clc1cc(N2CCOCC2)c2nonc2c1 [Hit #99] when you can.
Solution: 59
